# Test system: NCI-H2122;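 note: growth inhibition of the cells, read out with a cell viability assay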
# test: cells
# Type: functional, cell-based, Homo sapiens
# test settings: nci-h2122
# Description: SANGER: Inhibition of human NCI-H2122 cell growth in a cell viability assay.
observation type: pIC50
Field pIC50 (float): negative decimal logarithm of the concentration in molar.

Fill blank: measured pIC50 of the sequence CISPLATIN is ____.
4.82

----------
# Test system: HMV-2 cell line
# test: cells
# Format: functional, cell-based, Homo sapiens
# test settings: hmv-2
# Description: SANGER: Inhibition of human HMV-II cell growth in a cell viability assay.
observation type: IC50 (nM)
The answer is to be given in nM; state only the numeric part.

Fill blank: measured IC50 of the sequence BLEOMYCIN is ____.
69.7

----------
# Tested on: NCI-H2452
# test: cells
# Type: functional, cell-based, Homo sapiens
# test settings: Homo sapiens, NCI-H2452
# Description: SANGER: Inhibition of human NCI-H2452 cell growth in a cell viability assay.
observation type: IC50

Solved cases (4 shown):
line notation	IC50
C=C(c1ccc(C(=O)O)cc1)c1cc2c(cc1C)C(C)(C)CCC2(C)C	> 8 µM
CO[C@H]1C[C@@H]2CC[C@@H](C)[C@@](O)(O2)C(=O)C(=O)N2CCCC[C@H]2C(=O)O[C@H]([C@H](C)C[C@@H]2CC[C@@H](OC(=O)C(C)(CO)CO)[C@H](OC)C2)CC(=O)[C@H](C)/C=C(\C)[C@@H](O)[C@@H](OC)C(=O)[C@H](C)C[C@H](C)/C=C/C=C/C=C/1C	> 0.2 µM
CCC/C=C/C=C/C(=O)O[C@H]1/C(=C/C(=O)OC)C[C@H]2C[C@H]([C@@H](C)O)OC(=O)C[C@H](O)C[C@@H]3C[C@H](OC(C)=O)C(C)(C)[C@](O)(C[C@@H]4C/C(=C/C(=O)OC)C[C@H](/C=C/C(C)(C)[C@]1(O)O2)O4)O3	> 0.008 µM
Cc1cn(-c2cc(NC(=O)c3ccc(C)c(Nc4nccc(-c5cccnc5)n4)c3)cc(C(F)(F)F)c2)cn1	> 2 µM

For the next question, use this compound.
Fill blank: measured IC50 of the compound CS(=O)(=O)c1ccc(C(=O)Nc2ccc(Cl)c(-c3ccccn3)c2)c(Cl)c1 is ____.
> 10 µM

These entries and their values trace back to ChEMBL document CHEMBL1201861.
